assay: DPPH free radical scavenging test; details: compound at 25 μg/mL
Result Type: DPPH reduction value corresponding to concentration of Trolox (µg/mL)

- Smiles Str: "O=C(C=C1SC(=O)NC1=O)Oc1ccc(C=NNC(=S)Nc2ccc(Cl)cc2Cl)cc1"
  Obs Value: 0.768
- Smiles Str: "O=C(C=C1SC(=O)NC1=O)Oc1cccc(C=NNC(=S)Nc2ccccc2Cl)c1"
  Obs Value: 2.834
- Smiles Str: "O=C(C=C1SC(=O)NC1=O)Oc1ccccc1C=NNC(=S)Nc1ccccc1Cl"
  Obs Value: 2.942
- Smiles Str: "O=C(C=C1SC(=O)NC1=O)Oc1ccccc1C=NNC(=S)Nc1cccc(Cl)c1"
  Obs Value: 2.616
